Target: T1, MBP-fused CAND1 (human, UniProt Q86VP6 1-1230)
T1 construct: Cullin-associated and neddylation-dissociated 1 (CAND1), human; cDNA bought from the Kazusa DNA Research Institute, in pMAL-C2; also called MBP-CAND1; source: E. coli Rosetta-Gami, purified (amylose resin, eluted with maltose)
T1 sequence (looked up): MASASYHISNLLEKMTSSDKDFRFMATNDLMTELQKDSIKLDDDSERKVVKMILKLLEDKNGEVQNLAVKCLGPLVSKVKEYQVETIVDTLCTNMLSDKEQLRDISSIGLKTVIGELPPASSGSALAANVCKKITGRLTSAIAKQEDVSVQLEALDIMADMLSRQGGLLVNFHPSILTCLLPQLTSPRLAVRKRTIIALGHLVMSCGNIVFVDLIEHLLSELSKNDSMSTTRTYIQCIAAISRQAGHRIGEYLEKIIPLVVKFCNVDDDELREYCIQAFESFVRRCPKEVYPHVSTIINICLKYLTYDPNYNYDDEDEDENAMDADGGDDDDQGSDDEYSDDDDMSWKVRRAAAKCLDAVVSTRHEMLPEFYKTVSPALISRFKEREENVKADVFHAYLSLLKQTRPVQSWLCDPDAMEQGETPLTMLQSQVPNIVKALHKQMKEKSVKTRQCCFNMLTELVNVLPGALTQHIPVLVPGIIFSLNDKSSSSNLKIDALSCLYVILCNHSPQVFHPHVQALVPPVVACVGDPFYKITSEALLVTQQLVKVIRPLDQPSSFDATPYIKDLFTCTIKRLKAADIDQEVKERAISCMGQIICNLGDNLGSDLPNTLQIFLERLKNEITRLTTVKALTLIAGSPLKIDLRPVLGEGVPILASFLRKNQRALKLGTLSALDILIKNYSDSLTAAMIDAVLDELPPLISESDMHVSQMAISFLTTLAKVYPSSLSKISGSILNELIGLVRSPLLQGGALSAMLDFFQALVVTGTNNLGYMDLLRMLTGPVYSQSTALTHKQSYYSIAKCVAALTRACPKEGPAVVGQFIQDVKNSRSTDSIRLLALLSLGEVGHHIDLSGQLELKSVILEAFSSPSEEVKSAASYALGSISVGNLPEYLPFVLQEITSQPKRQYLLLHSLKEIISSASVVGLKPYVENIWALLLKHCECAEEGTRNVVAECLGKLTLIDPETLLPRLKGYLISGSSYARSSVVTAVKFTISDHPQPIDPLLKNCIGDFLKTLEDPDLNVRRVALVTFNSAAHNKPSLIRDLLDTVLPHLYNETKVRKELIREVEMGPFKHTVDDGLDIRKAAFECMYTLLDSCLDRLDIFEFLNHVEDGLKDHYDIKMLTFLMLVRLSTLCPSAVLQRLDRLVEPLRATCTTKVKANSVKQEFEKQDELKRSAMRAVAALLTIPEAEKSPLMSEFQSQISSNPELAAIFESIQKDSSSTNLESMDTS
Test: pull-down; His-Lnp WT or deletion mutants (0.5 nmol) immobilised on Ni-agarose, incubated with MBP-CAND1 or MBP alone (3 nmol) in buffer G with 10 mM imidazole, 4 °C 2 h; CBB staining
Details: both partners purified
recorded metric: binding result

INSERT INTO results (binder, recorded_metric, data_value) VALUES
  ('His-Lnp ΔCC (Lnp lacking the coiled-coil domain) (natural protein, human, UniProt Q9C0E8 1-428, looked up, lunapark (Lnp), human, lacking the coiled-coil domain (100–143 aa), in pET28a(+); source: E. coli BL21 (DE3), purified (Ni-agarose)) MGGLFSRWRTKPSTVEVLESIDKEIQALEEFREKNQRLQKLWVGRLILYSSVLYLFTCLIVYLWYLPDEFTARLAMTLPFFAFPLIIWSIRTVIIFFFSKKAKECEPPSAGAAVTARPGQEIRQRTAAQRNLSPTPASPNQGPPPQVPVSPGPPKDSSAPGGPPERTVTPALSSNVLPRHLGSPATSVPGMGLHPPGPPLARPILPRERGALDRIVEYLVGDGPQNRYALICQQCFSHNGMALKEEFEYIAFRCAYCFFLNPARKTRPQAPRLPEFSFEKRQVVEGSSSVGPLPSGSVLSSDNQFNEESLEHDVLDDNTEQTDDKIPATEQTNQVIEKASDSEEPEEKQETENEEASVIETNSTVPGADSIPDPELSGESLTAE', 'binding result', 'binds'),
  ('His-Lnp ΔUb (Lnp lacking the N-terminal ubiquitin ligase domain) (domain or fragment, human, UniProt Q9C0E8 46-428, looked up, lunapark (Lnp), human, lacking Lnp Ub (the N-terminal cytoplasmic domain, 1–45 aa), in pET28a(+); The start 46 follows from the printed limits of Lnp Ub (1–45 aa); source: E. coli BL21 (DE3), purified (Ni-agarose)) LILYSSVLYLFTCLIVYLWYLPDEFTARLAMTLPFFAFPLIIWSIRTVIIFFFSKRTERNNEALDDLKSQRKKILEEVMEKETYKTAKLILERFDPDSKKAKECEPPSAGAAVTARPGQEIRQRTAAQRNLSPTPASPNQGPPPQVPVSPGPPKDSSAPGGPPERTVTPALSSNVLPRHLGSPATSVPGMGLHPPGPPLARPILPRERGALDRIVEYLVGDGPQNRYALICQQCFSHNGMALKEEFEYIAFRCAYCFFLNPARKTRPQAPRLPEFSFEKRQVVEGSSSVGPLPSGSVLSSDNQFNEESLEHDVLDDNTEQTDDKIPATEQTNQVIEKASDSEEPEEKQETENEEASVIETNSTVPGADSIPDPELSGESLTAE', 'binding result', 'binds'),
  ('His-Lnp ΔZn + LNPARK (Lnp lacking the zinc finger motif and the following LNPARK amino acids) (natural protein, human, UniProt Q9C0E8 1-428, looked up, lunapark (Lnp), human, lacking the zinc finger motif and the following LNPARK amino acids (275–309 aa), in pET28a(+); source: E. coli BL21 (DE3), purified (Ni-agarose)) MGGLFSRWRTKPSTVEVLESIDKEIQALEEFREKNQRLQKLWVGRLILYSSVLYLFTCLIVYLWYLPDEFTARLAMTLPFFAFPLIIWSIRTVIIFFFSKRTERNNEALDDLKSQRKKILEEVMEKETYKTAKLILERFDPDSKKAKECEPPSAGAAVTARPGQEIRQRTAAQRNLSPTPASPNQGPPPQVPVSPGPPKDSSAPGGPPERTVTPALSSNVLPRHLGSPATSVPGMGLHPPGPPLARPILPRERGALDRIVEYLVGDGPQNRYALTRPQAPRLPEFSFEKRQVVEGSSSVGPLPSGSVLSSDNQFNEESLEHDVLDDNTEQTDDKIPATEQTNQVIEKASDSEEPEEKQETENEEASVIETNSTVPGADSIPDPELSGESLTAE', 'binding result', 'binds');
